Target: T1, Bdf1 bromodomain 1 (GST-tagged, WT) (Saccharomyces cerevisiae (strain ATCC …, UniProt P35817))
T1 chain: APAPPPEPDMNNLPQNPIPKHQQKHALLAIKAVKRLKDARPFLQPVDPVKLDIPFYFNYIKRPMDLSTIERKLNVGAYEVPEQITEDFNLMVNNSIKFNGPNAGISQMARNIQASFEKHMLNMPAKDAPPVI
Experiment: histone peptide array probed with recombinant GST-bromodomain, signal normalised to myc peptide control
Non-standard residues stand in square brackets, D forms with d. No end group written: not given here. Arg(Me2a) = CN(C)C(=N)NCCC[C@H](N)C(=O)O; Lys(Me3) = C[N+](C)(C)CCCC[C@H](N)C(=O)O; Arg(Me2s) = CN=C(NC)NCCC[C@H](N)C(=O)O; Lys(Me2) = CN(C)CCCC[C@H](N)C(=O)O; pS = N[C@@H](COP(=O)(O)O)C(=O)O; Lys(Me) = CNCCCC[C@H](N)C(=O)O
Property: binding score; scope: individual binders
# answer = number (no unit)

Qu. Given the binder ARTKQTARKSTGGKAPRKQ (A Rme2a T Kme1 Q T A Rme2a Kme1 S T G G K A P R K Q) , what is its reported binding score?
Ans. 0

Qu. Given the binder ARTKQTA[Arg(Me2a)][Lys(Me3)][pS]TGGKAPRKQ , what is its reported binding score?
Ans. 0

Qu. Given the binder PRKQLATKAA[Arg(Me2a)][Lys(Me)][pS]APATGG , what is its reported binding score?
Ans. 0

Qu. Given the binder SGRGKGGKGLGKGGAKRHR (pS G R G Kac G G K G L G K G G A K R H R) , what is its reported binding score?
Ans. 0.00108

Qu. Given the binder SGRGKGGKGLGKGGAKRHR (S G Rme2s G Kac G G Kac G L G Kac G G A K R H R) , what is its reported binding score?
Ans. 0.391

Qu. Given the binder SGRGKGGKGLGKGGAKRHR (S G Rme2a G K G G K G L G K G G A K R H R) , what is its reported binding score?
Ans. 0.0247

Qu. Given the binder ARTKQTARKSTGGKAPRKQ (A R T Kme2 Q T A R K S T G G K A P R K Q) , what is its reported binding score?
Ans. 0

Qu. Given the binder A[Arg(Me2s)]T[Lys(Me3)]QTA[Arg(Me2a)][Lys(Me2)]STGGKAPRKQ , what is its reported binding score?
Ans. 0.00197

Qu. Given the binder ARTKQTARKSTGGKAPRKQ (A Rme2s T Kme3 Q T A R K S T G G K A P R K Q) , what is its reported binding score?
Ans. 0
